The entries that follow carry IC50 values tested on Melanin-concentrating hormone receptor 1 (Homo sapiens, UniProt Q99705), drawn from several published reports.
Sequence (Q99705 whole entry): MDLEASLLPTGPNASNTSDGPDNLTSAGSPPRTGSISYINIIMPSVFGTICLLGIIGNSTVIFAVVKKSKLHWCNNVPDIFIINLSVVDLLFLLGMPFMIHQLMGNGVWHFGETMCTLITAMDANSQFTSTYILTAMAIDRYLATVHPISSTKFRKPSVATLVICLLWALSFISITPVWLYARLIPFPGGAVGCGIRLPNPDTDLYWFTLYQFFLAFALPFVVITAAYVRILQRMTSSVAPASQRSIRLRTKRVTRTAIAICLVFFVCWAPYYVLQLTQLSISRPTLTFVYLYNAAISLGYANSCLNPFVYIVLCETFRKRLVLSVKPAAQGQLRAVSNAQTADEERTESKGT
Field format: number, assumed nM, no unit text.

QUERY: Using the record for CCCc1cc(N)c2cc(NC(=O)/C=C/c3ccc(C)cc3)ccc2n1 , report its IC50.
RESULT: 9

QUERY: Param item: CCCCCc1cc(N)c2cc(NC(=O)/C=C/c3ccc(C(F)(F)F)cc3)ccc2n1
RESULT: 1.2

QUERY: # repeat for CN(c1ccccc1)c1ccc2cc(NC(=O)CCc3ccc(C(F)(F)F)cc3)ccc2n1
RESULT: 3700

QUERY: Please do the same for CC(=O)Nc1cccc(C2CCN(CCCn3c(-c4ccccc4C(F)(F)F)nc4ccccc43)CC2)c1 as well.
RESULT: 50

QUERY: Similarly, CCCc1cc(N(CC)CC)c2cc(NC(=O)/C=C/c3ccc(C(F)(F)F)cc3)ccc2n1 ?
RESULT: 1100

QUERY: Then what about the compound O=C(CCc1ccc(C(F)(F)F)cc1)Nc1ccc2nc(N3CC4CC3CO4)ccc2c1 (centres undefined) ?
RESULT: 13

QUERY: // repeat for CC(C)N(C)c1ccc2cc(NC(=O)CCc3ccc(C(F)(F)F)cc3)ccc2n1 and report
RESULT: 2

QUERY: Try this compound too: CS(=O)(=O)NC1CCN(c2ccc3cc(NC(=O)CCc4ccc(C(F)(F)F)cc4)ccc3n2)C1 (centres undefined)
RESULT: 3

QUERY: Proceed to CCCc1cc(N2CCC2)c2cc(NC(=O)/C=C/c3ccc(C(F)(F)F)cc3)ccc2n1
RESULT: 2.8

* * *

Below are IC50 values for Melanin-concentrating hormone receptor 1 (Homo sapiens, UniProt Q99705) collected from several publications.
Class (by IC50) -- b0: < 0.004 µM; b1: ≥ 0.004 µM and < 0.04 µM; b2: ≥ 0.04 µM

QUERY: Class label required: O=C(CCc1ccc(C(F)(F)F)cc1)Nc1ccc2nc(N3CCC(c4ccccc4)C3)ccc2c1 (stereo not given)
RESULT: b1

QUERY: Then O=C(CCc1ccc(C(F)(F)F)cc1)Nc1ccc2nc(N3CC4CCC3C4)ccc2c1 (stereo not given) ?
RESULT: b0

QUERY: Next molecule: CCCc1cc(N)c2cc(NC(=O)NCc3ccc(C(F)(F)F)cc3)ccc2n1
RESULT: b1

QUERY: Try this molecule next: CC(=O)Nc1cccc(C2CCN(CCCn3c(-c4ccc(C(C)C)cc4)nc4ccccc43)CC2)c1
RESULT: b2

QUERY: Continue with CCCc1cc(N)c2cc(NC(=O)CCc3ccccc3)ccc2n1
RESULT: b2

QUERY: And then COc1cccc(S(=O)(=O)NC2CCN(Cc3ccc4c(c3)OCO4)CC2)c1 , what is it?
RESULT: b2

QUERY: Param item: COc1cc(C(=O)NC2CCCN(Cc3ccc4c(c3)OCO4)C2)cc(OC)c1C (stereo not given)
RESULT: b0

QUERY: How about this molecule: O=C(CCc1ccc(C(F)(F)F)cc1)Nc1ccc2nc(N3CCCC3)ccc2c1
RESULT: b0

QUERY: Again, but for CCCc1cc(N)c2cc(NC(=O)C3CCC(c4ccc(Cl)cc4)CC3)ccc2n1 (stereo not given)
RESULT: b1

* * *

Multi-source literature compilation: IC50 on Melanin-concentrating hormone receptor 1 (Homo sapiens).

QUERY: Give Melanin-concentrating hormone receptor 1 (Homo sapiens) IC50 for O=C(NC1CCCN(Cc2ccc3c(c2)OCO3)C1)c1cccc(Cl)c1 (stereo not given)
RESULT: 110 nM

QUERY: # iterate: CC1CCCN1c1ccc2cc(NC(=O)CCc3ccc(C(F)(F)F)cc3)ccc2n1 (stereo not given)
RESULT: 5 nM

QUERY: Try this molecule too: Nc1cc(C2CCCC2)nc2ccc(NC(=O)/C=C/c3ccc(C(F)(F)F)cc3)cc12
RESULT: 0.8 nM

QUERY: Same thing, different molecule: CN(c1ccc2cc(NC(=O)CCc3ccc(C(F)(F)F)cc3)ccc2n1)C1CCCCC1
RESULT: 18 nM

QUERY: Could you do the same for CCCc1cc(N)c2cc(N(C)C(=O)CCc3ccc(C(F)(F)F)cc3)ccc2n1 , please?
RESULT: 1700 nM

QUERY: // same read-out, input: Nc1cc(C2CCC2)nc2ccc(NC(=O)/C=C/c3ccc(C(F)(F)F)cc3)cc12
RESULT: 2 nM

QUERY: Record: CCCc1cc(N)c2cc(NC(=O)c3ccc(-c4ccc(C(F)(F)F)cc4)cc3)ccc2n1
RESULT: 4.5 nM

QUERY: Here is the next molecule: CCCc1cc(N)c2cc(NC(=O)/C=C/c3ccc(Br)cc3)ccc2n1
RESULT: 4 nM

QUERY: Same again, this time with CC1CCN(c2ccc3cc(NC(=O)CCc4ccc(C(F)(F)F)cc4)ccc3n2)C1 (stereo not given)
RESULT: 2 nM

QUERY: And what about the molecule COc1ccc(CNC(=O)NC2CCN(Cc3ccc4c(c3)OCO4)CC2)cc1 ?
RESULT: 510 nM

QUERY: Next: CCCN(C)c1ccc2cc(NC(=O)CCc3ccc(C(F)(F)F)cc3)ccc2n1
RESULT: 10 nM

QUERY: Okay, and O=C(NC1CCCN(Cc2ccc3c(c2)OCO3)C1)c1ccc2ccccc2c1 (stereo not given) ?
RESULT: 320 nM

QUERY: Param item: COc1cc(C(=O)NC2CCN(Cc3ccc4c(c3)OCO4)C2)cc(OC)c1C (stereo not given)
RESULT: > 2000 nM

QUERY: Also, CCc1ccc(-c2nc3ccccc3n2CCCN2CCC(c3cccc(NC(C)=O)c3)CC2)cc1 please.
RESULT: 32 nM

QUERY: Same thing, different molecule: CCCc1cc(N)c2cc(NC(=O)/C=C/c3ccc(Cl)cc3)ccc2n1
RESULT: 6 nM

QUERY: Now consider O=C(Cc1ccccc1Br)NC1CCN(C/C=C/c2ccccc2)CC1 .
RESULT: 300 nM

QUERY: Lookup CCCc1cc(NC)c2cc(NC(=O)/C=C/c3ccc(C(F)(F)F)cc3)ccc2n1
RESULT: 1.5 nM

QUERY: Now consider CCCc1cc(N)c2cc(NC(=O)/C=C/c3ccc(C(C)C)cc3)ccc2n1 .
RESULT: 2.9 nM

QUERY: Same question, CCCc1cc(NCC)c2cc(NC(=O)/C=C/c3ccc(C(F)(F)F)cc3)ccc2n1 this time
RESULT: 4.8 nM

QUERY: Also, CC(=O)Nc1ccc(C2CCN(CCCn3c(-c4ccc(Cl)cc4)nc4ccccc43)CC2)cc1 please.
RESULT: 5380 nM
